assay_remarks: Cell permeability, flux assay using Caco-2 cells
particulars: human, Caco-2
Listing: efflux ratio at 2 h of selected molecules

molecule	efflux ratio at 2 h
CC(C)(C)[C@H](c1cc(-c2cc(F)ccc2F)cn1Cc1ccccc1)N(CC[C@H](N)C(=O)NCCC(=O)NCCN1C(=O)CC(SC[C@H](N)C(=O)O)C1=O)C(=O)CO.O=C(O)C(F)(F)F (stereo partly drawn)	6

Endpoint output: efflux ratio at 2 h of CC(C)(C)[C@H](c1cc(-c2cc(F)ccc2F)cn1Cc1ccccc1)N(CCCN)C(=O)CSCCCCCC(=O)NCCN1C(=O)CC(SC[C@H](N)C(=O)O)C1=O.O=C(O)C(F)(F)F.O=C(O)C(F)(F)F (stereo partly drawn) . Value? 35

Quick one: efflux ratio at 2 h of `CNC(=O)[C@@H](N)CCN(C(=O)CO)[C@@H](c1cc(-c2cc(F)ccc2F)cn1Cc1ccccc1)C(C)(C)C.O=C(O)C(F)(F)F` ? 8.7

* * *

assay_remarks: Cell permeability, flux assay using Caco-2 cells
particulars: human, Caco-2
Is efflux ratio at 2 h at least 8? Then label 1. If not, label 0.

Use these answered entries as a reference point.
molecule	cat
CC(C)(C)[C@H](c1cc(-c2cc(F)ccc2F)cn1Cc1ccccc1)N(CC[C@H](N)C(=O)NCCN1C(=O)CC(SC[C@H](N)C(=O)O)C1=O)C(=O)CO.O=C(O)C(F)(F)F.O=C(O)C(F)(F)F (some centres unmarked)	label 0
C[C@H](NC(=O)CCNC(=O)[C@@H](N)CCN(C(=O)CO)[C@@H](c1nc(-c2cc(F)ccc2F)cn1Cc1ccccc1)C(C)(C)C)C(=O)N[C@@H](CCCNC(N)=O)C(=O)Nc1ccc(CC(=O)NCCN2C(=O)CC(SC[C@H](N)C(=O)O)C2=O)cc1 (some centres unmarked)	label 0

Record `CC(C)(C)[C@H](c1nc(-c2cc(F)ccc2F)cn1Cc1ccccc1)N(CC[C@H](N)C(=O)O)C(=O)CO.O=C(O)C(F)(F)F` ; criterion: efflux ratio at 2 h no lower than 8. Met? label 1

Check the entry CC(C)(C)[C@H](c1nc(-c2cc(F)ccc2F)cn1Cc1ccccc1)N(CC[C@H](N)C(=O)NCCC(=O)NCCN1C(=O)CC(SC[C@H](N)C(=O)O)C1=O)C(=O)CO.O=C(O)C(F)(F)F (some centres unmarked) : does efflux ratio at 2 h equal or exceed 8? label 0

Decide: efflux ratio at 2 h of CC(C)[C@H](NC(=O)CCNC(=O)[C@@H](N)CCN(C(=O)CO)[C@@H](c1nc(-c2cc(F)ccc2F)cn1Cc1ccccc1)C(C)(C)C)C(=O)N[C@@H](CCCNC(N)=O)C(=O)Nc1ccc(CC(=O)NCCN2C(=O)CC(SC[C@H](N)C(=O)O)C2=O)cc1 (some centres unmarked) >= 8? label 0

* * *

study_system: human kinesin spindle protein KSP/Eg5 (Homo sapiens)
Construct: The motor domain of the human kinesin spindle protein KSP/Eg5
Sequence (P52732 18-359 limits assumed): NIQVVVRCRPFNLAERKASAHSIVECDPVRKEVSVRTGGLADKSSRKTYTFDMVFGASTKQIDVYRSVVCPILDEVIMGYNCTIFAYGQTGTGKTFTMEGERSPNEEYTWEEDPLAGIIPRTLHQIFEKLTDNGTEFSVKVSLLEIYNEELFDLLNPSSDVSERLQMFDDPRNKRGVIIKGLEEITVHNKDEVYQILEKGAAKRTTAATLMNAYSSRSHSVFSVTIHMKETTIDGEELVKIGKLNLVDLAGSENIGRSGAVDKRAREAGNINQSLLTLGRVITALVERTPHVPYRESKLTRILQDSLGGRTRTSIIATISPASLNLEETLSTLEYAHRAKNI
assay_remarks: Inhibition of the kinesin spindle protein KSP/Eg5 (ATPase, malachite green)
particulars: 10 nM KSP motor domain, 500 μM ATP, 2 h RT
IC50 less than 3 nM is rule met; IC50 greater than or equal to 3 nM is rule not met.

The following molecules have reported results that may help.
molecule	cat
CC(C)(C)[C@H](c1nc(-c2cc(F)ccc2F)cn1Cc1ccccc1)N(CCCN)C(=O)CSCCC(NC(=O)CCOCCOCCOCCOCCNC(=O)CCN1C(=O)CC(SC[C@H](N)C(=O)O)C1=O)C(=O)O.O=C(O)C(F)(F)F.O=C(O)C(F)(F)F (mixture of isomers)	rule met
CC(C)(C)[C@H](c1nc(-c2cc(F)ccc2F)cn1Cc1ccccc1)N(CCCNC(=O)[C@@H](N)CCCNC(N)=O)C(=O)CO	rule not met
CC(C)(C)[C@H](c1nc(-c2cc(F)ccc2F)cn1Cc1ccccc1)N(CC[C@H](N)C(=O)NCCC(=O)N[C@@H](Cc1ccc(N)cc1)C(=O)O)C(=O)CO.O=C(O)C(F)(F)F.O=C(O)C(F)(F)F	rule not met
CC(C)(C)[C@H](c1nn(-c2cc(F)ccc2F)cc1Cc1ccccc1)N(CC[C@H](N)C(=O)NCCNC(=O)CN1C(=O)CC(SC[C@H](N)C(=O)O)C1=O)C(=O)CO.O=C(O)C(F)(F)F (stereo partly shown)	rule met
CC(C)[C@H](NC(=O)CCCCCN1C(=O)CC(SC[C@H](N)C(=O)O)C1=O)C(=O)N[C@@H](C)C(=O)N[C@@H](CCCCNC(=O)CCNC(=O)[C@@H](N)CCN(C(=O)CO)[C@@H](c1cc(-c2cc(F)ccc2F)cn1Cc1ccccc1)C(C)(C)C)C(=O)O (stereo partly shown)	rule met
CC(C)(C)[C@H](c1nn(-c2cc(F)ccc2F)cc1Cc1ccccc1)N(CCCN)C(=O)c1ccc(F)cc1F	rule not met

Below 3 nM on IC50? Entry `CC(C)(C)[C@H](c1cc(-c2cc(F)ccc2F)cn1Cc1ccccc1)N(CCCN)C(=O)CSCCC(=O)O` rule met

is_below(IC50, 3 nM) for `CC(C)(C)[C@H](c1cc(-c2cc(F)ccc2F)cn1Cc1ccccc1)N(CCCN)C(=O)CC(F)(F)F` ? rule not met

API: query returns whether the molecule falls strictly under 3 nM in IC50. Query: C[C@H](NC(=O)CCNC(=O)[C@@H](N)CCN(C(=O)CO)[C@@H](c1nc(-c2cc(F)ccc2F)cn1Cc1ccccc1)C(C)(C)C)C(=O)N[C@@H](CCCNC(N)=O)C(=O)Nc1ccc(N2C(=O)CC(SC[C@H](N)C(=O)O)C2=O)cc1 (stereo partly shown) rule not met
